Data provenance: patent US20160361298A1

- tested-target: Recombinant IDO (Homo sapiens)
- Construct: Recombinant TDO or IDO was diluted to 16 ng/uL and 50 uL loaded into wells of a 96-well plate
- Sequence (P14902 whole entry): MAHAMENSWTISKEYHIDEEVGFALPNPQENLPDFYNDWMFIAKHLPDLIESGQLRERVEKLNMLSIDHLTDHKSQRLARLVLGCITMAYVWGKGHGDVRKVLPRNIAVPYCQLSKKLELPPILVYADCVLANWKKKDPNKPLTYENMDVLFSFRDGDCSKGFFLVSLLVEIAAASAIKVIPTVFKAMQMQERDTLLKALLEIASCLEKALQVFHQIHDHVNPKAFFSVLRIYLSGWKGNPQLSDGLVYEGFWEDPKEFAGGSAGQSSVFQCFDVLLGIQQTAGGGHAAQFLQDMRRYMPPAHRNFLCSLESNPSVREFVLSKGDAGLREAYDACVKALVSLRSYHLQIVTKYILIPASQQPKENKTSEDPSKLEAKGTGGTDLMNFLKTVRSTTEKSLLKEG
- test: IDO Inhibition Assay (recombinant enzyme, absorbance at 321 nm)
- Assay type: biochemical
- experimental-setup: read-out: IDO Inhibition Assay Dose Resp. (IC50)
property-name: IC50 (µM)

(I) CCC(C)n1ncn(-c2ccc(N3CCN(c4ccc(OCC5COC(Cn6cncn6)(c6ccc(Cl)cc6Cl)O5)cc4)CC3)cc2)c1=O (stereo not drawn)
(II) Clc1cccc(C(c2ccc3[nH]cnc3c2)n2ccnc2)c1 (stereo not drawn)
(III) Clc1ccc(C(Cn2ccnc2)OCc2ccsc2Cl)c(Cl)c1 (stereo not drawn)
Qu. Rank the items in ascending order with respect to IC50. Put the labels in the order asked and list them.
Ans. III, I, II
(III: 9.33 µM, I: 17.4 µM, II: 63.4 µM)

====

- tested-target: Recombinant TDO (Homo sapiens, UniProt P48775)
- Construct: Recombinant TDO or IDO was diluted to 16 ng/uL and 50 uL loaded into wells of a 96-well plate
- Sequence (P48775 whole entry): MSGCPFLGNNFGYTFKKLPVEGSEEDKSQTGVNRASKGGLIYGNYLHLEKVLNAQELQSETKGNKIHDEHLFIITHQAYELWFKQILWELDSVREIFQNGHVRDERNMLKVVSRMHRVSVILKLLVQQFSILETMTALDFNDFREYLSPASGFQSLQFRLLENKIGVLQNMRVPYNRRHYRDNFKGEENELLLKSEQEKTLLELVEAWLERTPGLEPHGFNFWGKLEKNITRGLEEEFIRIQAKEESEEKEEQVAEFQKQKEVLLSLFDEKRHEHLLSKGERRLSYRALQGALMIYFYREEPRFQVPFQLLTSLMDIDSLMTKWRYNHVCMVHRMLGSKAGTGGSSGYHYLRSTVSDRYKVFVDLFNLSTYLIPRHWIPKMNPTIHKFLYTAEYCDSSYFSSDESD
- test: TDO Inhibition Assay (recombinant enzyme, absorbance at 321 nm)
- Assay type: biochemical
- experimental-setup: read-out: TDO Inhibition Assay Dose Resp. (IC50)
property-name: IC50 (µM)

| compound | tested-target | property-name | experimental-result |
| --- | --- | --- | --- |
| Clc1ccc(C(Cn2ccnc2)OCc2csc3c(Cl)cccc23)c(Cl)c1 (stereo not drawn) | Recombinant TDO (Homo sapiens, UniProt P48775) | IC50 | 4.07 |
| Clc1cccc(C(c2ccc3[nH]cnc3c2)n2ccnc2)c1 (stereo not drawn) | Recombinant TDO (Homo sapiens, UniProt P48775) | IC50 | 9.33 |
| Clc1ccc(COC(Cn2ccnc2)c2ccc(Cl)cc2Cl)c(Cl)c1 (stereo not drawn) | Recombinant TDO (Homo sapiens, UniProt P48775) | IC50 | 3.7 |
| Clc1ccc(C(Cn2ccnc2)OCc2ccsc2Cl)c(Cl)c1 (stereo not drawn) | Recombinant TDO (Homo sapiens, UniProt P48775) | IC50 | 4.16 |
| CC1=NN(c2ccc(C)c(C)c2)C(=O)/C1=N\Nc1cccc(-c2cccc(C(=O)O)c2)c1O | Recombinant TDO (Homo sapiens, UniProt P48775) | IC50 | 1.05 |

(1) CCC(C)n1ncn(-c2ccc(N3CCN(c4ccc(OCC5COC(Cn6cncn6)(c6ccc(Cl)cc6Cl)O5)cc4)CC3)cc2)c1=O (stereo not drawn)
(2) Clc1ccc(C(Cn2ccnc2)OCc2ccc(Sc3ccccc3)cc2)c(Cl)c1 (stereo not drawn)
Qu. Identify the item whose IC50 is the smaller number: 1 or 2 Kindly give the label for the entry you pick.
Ans. 2

====

- tested-target: Recombinant IDO (Homo sapiens)
- Construct: Recombinant TDO or IDO was diluted to 16 ng/uL and 50 uL loaded into wells of a 96-well plate
- test: IDO Inhibition Assay (recombinant enzyme, absorbance at 321 nm)
- Type: biochemical
- experimental-setup: 1 μM test compound; remaining enzyme activity; read-out: IDO Inhibition Assay Screening (Activity, %) 1 μM
property-name: activity at 1 µM (%)

| molecule | u | experimental-result |
| --- | --- | --- |
| CCC(C)n1ncn(-c2ccc(N3CCN(c4ccc(OCC5COC(Cn6cncn6)(c6ccc(Cl)cc6Cl)O5)cc4)CC3)cc2)c1=O (stereo not shown) | % | 72 |
| O=C(O)c1ccc(-n2nc(-c3ccccc3O)nc2-c2ccccc2O)cc1 | % | 90 |
| Clc1ccc(C(Cn2ccnc2)OCc2csc3c(Cl)cccc23)c(Cl)c1 (stereo not shown) | % | 63 |
| O=C(Nc1ccc([N+](=O)[O-])cc1Cl)c1cc(Cl)ccc1O [Niclosamide] | % | 84 |
| Clc1ccc(C(Cn2ccnc2)OCc2ccc(Sc3ccccc3)cc2)c(Cl)c1 (stereo not shown) | % | 85 |
| Clc1ccc(C(Cn2ccnc2)OCc2c(Cl)cccc2Cl)c(Cl)c1 (stereo not shown) | % | 76 |
| Clc1cccc(C(c2ccc3[nH]cnc3c2)n2ccnc2)c1 (stereo not shown) | % | 99 |
| Clc1ccc(COC(Cn2ccnc2)c2ccc(Cl)cc2Cl)c(Cl)c1 (stereo not shown) | % | 67 |
| Clc1ccc(COC(Cn2ccnc2)c2ccc(Cl)cc2Cl)cc1 (stereo not shown) | % | 71 |
| Clc1ccc(C(Cn2ccnc2)OCc2ccsc2Cl)c(Cl)c1 (stereo not shown) | % | 76 |
